# System: Escherichia phage T7
# test_summary: Inhibition of T7 RNA polymerase activity assessed as blockade of DNA transcription
test_readout: IC99 (µM)

A: O=C(Nc1ccccc1)c1cccc2c(=O)c3ccccc3[nH]c12
B: CN(C)CCNC(=O)c1cccc2c(=O)c3ccccc3[nH]c12
Rank A against B by their IC99 values and give the higher one. // return label of chosen record
B

----------
# test_summary: Cytotoxicity against human HuH7 cells by XTT assay
# Format: cell-based, Huh-7
test_readout: CC50 (µM)
Give the quantity in µM, number only.

Cc1ccnc(NC(=O)c2cccc3c(=O)c4ccccc4[nH]c23)c1: 7
Cc1cccnc1NC(=O)c1cccc2c(=O)c3ccccc3[nH]c12: 39.2

Requested field: CC50. Item: O=C(Nc1ccccc1)c1cccc2c(=O)c3ccccc3[nH]c12
90.9

Requested field: CC50. Item: Cc1cccc(NC(=O)c2cccc3c(=O)c4ccccc4[nH]c23)c1
5.5

Requested field: CC50. Item: O=C(Nc1ccncc1)c1cccc2c(=O)c3ccccc3[nH]c12
175

Requested field: CC50. Item: O=C(NCc1ccccn1)c1cccc2c(=O)c3ccccc3[nH]c12
10.2

Requested field: CC50. Item: O=C(Nc1ccccn1)c1cccc2c(=O)c3ccccc3[nH]c12
412

Requested field: CC50. Item: Cc1ccccc1NC(=O)c1cccc2c(=O)c3ccccc3[nH]c12
99.3
